Assay: Acute toxicity (LD50) in rats
Details: rat, in vivo, iv; i.v. (rats)
quantity kind: LD50

Exam item: # return recorded LD50 for entry Cc1c(C)c2c(c(C)c1OP(=O)(O)OC1=C(O)[C@@H]([C@@H](O)CO)OC1=O)CCC(C)(CCCC(C)CCCC(C)CCCC(C)C)O2 (mixture of isomers) [EPC-K]
Marked response: ≥ 100 mg/kg
